B1: EEHEE_rd4_0003 (parent)
chain: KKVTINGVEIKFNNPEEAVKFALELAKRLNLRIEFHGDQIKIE

# Variants of: B1
# ASSAY INFO: folding stability dG (cDNA display proteolysis); higher = more stable
# STUDY CONDITIONS: PBS, room temperature
Please provide measured folding stability dG for the entries that follow.
Give bare numbers, in kcal/mol.

# return folding stability dG for each item in the list
1. F21L
2. L31K
3. E9Y
4. I33N
5. I33E
6. E9D
7. Q39E

Solution:
[2.03, 1.2, 2.58, 0.797, 0.529, 2.3, 2.92]

# return folding stability dG for each item in the list
1. T4H
2. D38P
3. G7P
4. N6D
5. A22E

Solution:
1: 2.26; 2: 2.1; 3: 2.01; 4: 2.25; 5: 0.979

Reference source: the MegaScale stability set (Tsuboyama et al. 2023)
